Assay: Cytotoxicity against human NHDF cells assessed as cell viability at 10 uM after 48 hrs by MTT assay
Type: toxicity, cell-based
Conditions: NHDF cells, read-out: Activity
Measurement label: viability at 48 h, 10 µM (%)
# unit: % | format: bare number

CCCCCCNCc1ccc2ccc3ccc(CNCCCCCC)nc3c2n1 = 22.4

Would you kindly look at the next entry?
Endpoint output: viability at 48 h, 10 µM of NCCNC(=O)c1ccc2ccc3ccc(C(=O)NCCN)nc3c2n1 . Value? 75.1

---

Listing of entries alongside the reported ΔTm.
System: Quadruplex DNA
Experiment: Binding affinity to human G-quadruplex telomeric DNA F21CTAT (5'-duplex FAM-GGGCTAGGGCTAGGGCTAGGG-TAM-3') assessed as stabilization by measuring change in melting temperature at 5 uM by FRET melting assay
Type: nucleic-acid assay
# unit: °C | format: bare number

In the examples that follow, each entry is paired with its recorded ΔTm.
NCCNC(=O)c1ccc2ccc3ccc(C(=O)NCCN)nc3c2n1 = 2.9
NCCNCc1ccc2ccc3ccc(CNCCN)nc3c2n1.O=C(O)C(F)(F)F.O=C(O)C(F)(F)F.O=C(O)C(F)(F)F.O=C(O)C(F)(F)F = 5.2

Would you kindly look at the next entry?
Endpoint output: ΔTm of COc1ccc(NCc2ccc3ccc4ccc(CNc5ccc(OC)cc5)nc4c3n2)cc1 . Value? 4.1

Cited source: ChEMBL document CHEMBL5214969
